Method notes: Bioavailability of octreotide SEDDS formulation in beagle dogs
Measurement parameters: dog, plasma, oral, 1.5 mg/animal
Reported metric: bioavailability (%)
Your answer should be a plain number; it is taken to be in %.

Request the reported bioavailability associated with C[C@@H](O)[C@@H]1NC(=O)[C@H](CCCCN)NC(=O)[C@@H](Cc2c[nH]c3ccccc23)NC(=O)[C@H](Cc2ccccc2)NC(=O)[C@@H](NC(=O)[C@H](N)Cc2ccccc2)CSSC[C@@H](C(=O)N[C@H](CO)[C@@H](C)O)NC1=O [octreotide] 2.1

----------
Method notes: Pharmacokinetic evaluation of octreotide lipid conjugate in beagle dogs (Charles River Study No 47656 PAC)
Type: in vivo
Measurement parameters: dog, plasma, conjugate dose 0 mg, oral gavage octreotide 0.12 mg/kg, vs iv bolus 0.01 mg/kg, read-out: abs. bioavailability
Reported metric: bioavailability (%)
Your answer should be a plain number; it is taken to be in %.

Request the reported bioavailability associated with C[C@@H](O)[C@@H]1NC(=O)[C@H](CCCCN)NC(=O)[C@@H](Cc2c[nH]c3ccccc23)NC(=O)[C@H](Cc2ccccc2)NC(=O)[C@@H](NC(=O)[C@H](N)Cc2ccccc2)CSSC[C@@H](C(=O)N[C@H](CO)[C@@H](C)O)NC1=O [octreotide] 2.1
